# assayTarget: Sodium- and chloride-dependent GABA transporter 1 (Mus musculus, UniProt P31648)
# methodNotes: Inhibition of NO711 binding to mouse GAT1 expressed in HEK293 cell membranes assessed as reduction in NO711 binding at incubated for 4 hrs in presence of NO711 by LC-ESI-MS/MS analysis relative to control
readout: Kd (nM)
State just the number; it will be interpreted in nM.

**Q:** Kd of O=C(O)C1=CCCN(CCON=C(c2ccccc2)c2ccccc2)C1 on Sodium- and chloride-dependent GABA transporter 1 (Mus musculus, UniProt P31648)?
**A:** 26.5

* * *

# assayTarget: Sodium- and chloride-dependent GABA transporter 1 (Mus musculus)
# methodNotes: Inhibition of NO711 binding to mouse GAT1 expressed in HEK293 cell membranes assessed as reduction in NO711 binding at incubated for 4 hrs in presence of NO711 by LC-ESI-MS/MS analysis relative to control
readout: Ki (nM)
Provide only the numeric value, understood in nM.

**Q:** Any idea what Ki came out for O=C(O)C1CCN(CCO/N=C/c2ccccc2-c2ccc(Cl)cc2Cl)C1 (stereo not drawn) on Sodium- and chloride-dependent GABA transporter 1 (Mus musculus)?
**A:** 389

**Q:** Lab request: please report Ki under test system Sodium- and chloride-dependent GABA transporter 1 (Mus musculus) for COc1cccc(F)c1-c1ccccc1/C=N/OCCN1CCC(C(=O)O)C1 (stereo not drawn)
**A:** 407

**Q:** Given the entry O=C(O)C1CCN(CCO/N=C/c2ccccc2-c2ccc(F)cc2Cl)C1 (stereo not drawn) , what Ki was observed with Sodium- and chloride-dependent GABA transporter 1 (Mus musculus)?
**A:** 692

* * *

I'd appreciate it if you could supply IC50 values for the items below.
# assayTarget: Sodium- and chloride-dependent GABA transporter 1 (Mus musculus, UniProt P31648)
# methodNotes: Inhibition of mouse GAT1 expressed in HEK293 cells assessed as reduction in [3H]GABA uptake preincubated for 25 mins followed by [3H]GABA addition and measured after 4 mins by liquid scintillation counting method
Include the unit right after the number.

**Q:** Need IC50, item O=C(O)CC1CCNC1 (stereo not given)
**A:** 4.07 µM

**Q:** Given COc1cccc(F)c1-c1ccccc1/C=N/OCCN1CCC(C(=O)O)C1 (stereo not given) , state its recorded IC50.
**A:** 1.91 µM

**Q:** # lookup: IC50 of O=C(O)C1CCN(CCO/N=C/c2ccccc2-c2ccc(F)cc2Cl)C1 (stereo not given)
**A:** 4.79 µM

**Q:** Which IC50 is reported for this compound? O=C(O)C1CCNC1 (stereo not given)
**A:** 67.6 µM

**Q:** Look up IC50 for this compound: O=C(O)C1CCN(CCO/N=C/c2ccccc2-c2ccc(Cl)cc2Cl)C1 (stereo not given)
**A:** 2.29 µM

Ref: ChEMBL document CHEMBL4340561
